Experiment: Parallel artificial membrane permeability assay (PAMPA)
Assay type: in vitro ADME
Settings: pH 7.4, read-out: Pe at pH 7.4
Hi there, I'd appreciate the recorded Papp for every entry that follows.

Please give the measured Papp for this compound: COc1ccc(S(=O)(=O)Nc2ccc(N(CC(=O)O)S(=O)(=O)c3ccc(OC)cc3)c3ccccc23)cc1 [Compound 2]
0.8 ×10⁻⁶ cm/s

Please give the measured Papp for this compound: COc1ccc(S(=O)(=O)Nc2ccc(N(CC(=O)N3CCSC3=O)S(=O)(=O)c3ccc(OC)cc3)c3ccccc23)cc1 [pro2]
6.35 ×10⁻⁶ cm/s
